tested on: 616215-338-R-J1-PDC complex spheroid viability; test: Anticancer human tumor 616215-338-R-J1-PDC patient-derived colon adenocarcinoma cell line growth inhibition [POLQ]; settings: second compound 0.0316 µM; first compound 3.16 µM; stronger effect = lower value;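 also: spheroids exposed to compounds for one week before readout; percent viability relative to DMSO vehicle wells taken as 100%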
The following molecules are shown together with reported viability, T/C values.

[
  {
    "molecule": "CCCS(=O)(=O)Nc1ccc(F)c(C(=O)c2c[nH]c3ncc(-c4ccc(Cl)cc4)cc23)c1F + Nc1ccc(C#CCN(C(=O)Cc2ncc(C(F)(F)F)cc2C(F)(F)F)c2ccc(F)cc2)nn1",
    "u": "%",
    "viability, T/C": 114
  },
  {
    "molecule": "CC(C)n1c(=O)n(C)c2cnc3cc(F)c(-c4ccc(OCCCN5CCCCC5)nc4)cc3c21 + Cc1cccc(N(C)C(=O)C2C(O)CCN2c2nc(C)cc(C(F)(F)F)c2C#N)c1",
    "u": "%",
    "viability, T/C": 108
  },
  {
    "molecule": "CC1COCCN1c1cc(-c2ccnn2C)c2ccnc(-c3ccn[nH]3)c2n1 (stereo unspecified) + Cc1cccc(N(C)C(=O)C2C(O)CCN2c2nc(C)cc(C(F)(F)F)c2C#N)c1",
    "u": "%",
    "viability, T/C": 49.4
  },
  {
    "molecule": "COc1cc(C2c3cc4c(cc3C(OC3OC5COC(C)OC5C(O)C3O)C3COC(=O)C23)OCO4)cc(OC)c1O (stereo unspecified) + COC1C(OC(N)=O)C(O)C(Oc2ccc3c(O)c(NC(=O)c4ccc(O)c(CC=C(C)C)c4)c(=O)oc3c2C)OC1(C)C",
    "u": "%",
    "viability, T/C": 88.3
  },
  {
    "molecule": "CCCS(=O)(=O)Nc1ccc(F)c(C(=O)c2c[nH]c3ncc(-c4ccc(Cl)cc4)cc23)c1F + Cc1cccc(N(C)C(=O)C2C(O)CCN2c2nc(C)cc(C(F)(F)F)c2C#N)c1",
    "u": "%",
    "viability, T/C": 89.5
  },
  {
    "molecule": "COc1cc2cc(C(=O)CCC(=O)O)sc2cc1OC + COC1C(OC(N)=O)C(O)C(Oc2ccc3c(O)c(NC(=O)c4ccc(O)c(CC=C(C)C)c4)c(=O)oc3c2C)OC1(C)C",
    "u": "%",
    "viability, T/C": 102
  }
]
